molecular target: T1, hHER3 ECD (human HER3 extracellular domain) (human, UniProt P21860 20-643); assay: SPR off rate on HER3-ECD, periplasmic extract
T1 construct: also called recombinant HER3-ECD
Parameter: koff (s⁻¹)

Guide cases for koff, answers given:
Binder	koff, s⁻¹
HER3MS00070 (VHH, 18G11 M99I) VHH: EVQLVESGGGLVQPGGSLRLSCAASGTLFKINAMGWYRQAPGKRRELVALITSSDTTDYAESVEGRFTISRDNTWNAVYLQMNSLKPEDTAVYYCHSDHYSIGVPEKRVIMYGQGTLVTVSS	0.00064
HER3MS00072 (VHH, 18G11 M102L) VHH: EVQLVESGGGLVQPGGSLRLSCAASGTLFKINAMGWYRQAPGKRRELVALITSSDTTDYAESVEGRFTISRDNTWNAVYLQMNSLKPEDTAVYYCHSDHYSMGVPEKRVILYGQGTLVTVSS	0.00082
HER3MS00068 (VHH, 18G11 M99G) VHH: EVQLVESGGGLVQPGGSLRLSCAASGTLFKINAMGWYRQAPGKRRELVALITSSDTTDYAESVEGRFTISRDNTWNAVYLQMNSLKPEDTAVYYCHSDHYSGGVPEKRVIMYGQGTLVTVSS	0.001

1. HER3MS00069 (VHH, 18G11 M99L) VHH: EVQLVESGGGLVQPGGSLRLSCAASGTLFKINAMGWYRQAPGKRRELVALITSSDTTDYAESVEGRFTISRDNTWNAVYLQMNSLKPEDTAVYYCHSDHYSLGVPEKRVIMYGQGTLVTVSS
2. HER3MS00074 (VHH, 18G11 M102E) VHH: EVQLVESGGGLVQPGGSLRLSCAASGTLFKINAMGWYRQAPGKRRELVALITSSDTTDYAESVEGRFTISRDNTWNAVYLQMNSLKPEDTAVYYCHSDHYSMGVPEKRVIEYGQGTLVTVSS
Look at 1 and 2 . Which one has the lower recorded koff number? Identify your pick by its label.
2
